test system: L. donovani amastigotes in THP-1 macrophages, DAPI imaging, 72 h; experiment: L. donovani intracellular amastigote growth inhibitors, imaging, THP-1 host macrophages, single concentration (AID 977614);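 further: signal is the parasite per host cell ratio from DAPI stained kinetoplasts and nuclei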
Activity calls are given as the source filed them.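 How the source made its calls: active means parasite count per well reduced by over 3 SD from the mean, with host cell number above 80% of untreated; inactive means the rest.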
Observable: AC50

Data point: C[C@H](CO)N1C[C@H](C)[C@H](CN(C)S(=O)(=O)c2ccc(-n3cccn3)cc2)OCc2cn(nn2)CCCC1=O ; AC50 = > 10 µM (inactive)

Data point: Cc1noc(C)c1S(=O)(=O)N(C)C[C@H]1OCc2cnnn2CCCC(=O)N([C@H](C)CO)C[C@@H]1C ; AC50 = > 10 µM (inactive)

Data point: C[C@H]1CN([C@@H](C)CO)C(=O)CCCn2nncc2CO[C@H]1CN(C)S(=O)(=O)c1ccc2c(c1)OCCCO2 ; AC50 = > 10 µM (inactive)

Data point: C[C@H]1CN([C@@H](C)CO)C(=O)CCCn2nncc2CO[C@H]1CN(C)C(=O)c1cc(-c2ccccc2)on1 ; AC50 = > 10 µM (inactive)

Data point: CCCNC(=O)N(C)C[C@@H]1[C@@H](c2ccccc2)[C@H](CO)N1C(=O)c1ccccc1 ; AC50 = > 10 µM (inactive)

Data point: C[C@@H]1CN([C@@H](C)CO)C(=O)CCCn2nncc2CO[C@H]1CN(C)C(=O)c1ccc(N2CCN(C)CC2)cc1 ; AC50 = > 10 µM (inactive)

Data point: C[C@@H]1CN([C@@H](C)CO)C(=O)CCCn2cc(nn2)CO[C@@H]1CN(C)Cc1ccccc1 ; AC50 = > 10 µM (inactive)

Data point: O=C(CC(F)(F)F)N1C[C@H]2[C@@H](c3ccccc31)[C@@H](CO)N2Cc1cccnc1 ; AC50 = > 10 µM (inactive)

Data point: COc1ccc(C(=O)N2C[C@H]3[C@@H](c4ccccc42)[C@@H](CO)N3C(=O)NC(C)C)cc1 ; AC50 = > 10 µM (inactive)

Data point: COc1ccccc1C(=O)N1C[C@@H]2[C@H](c3ccccc31)[C@@H](CO)N2C(=O)Cc1ccccc1 ; AC50 = > 10 µM (inactive)

Data point: CC(=O)N1[C@@H](CO)[C@@H](c2ccccc2)[C@@H]1CN(CC(C)C)C(=O)c1ccccn1 ; AC50 = > 10 µM (inactive)

Data point: CCN(C[C@@H]1N[C@H](CO)[C@H]1c1ccccc1)C(=O)c1ccncc1 ; AC50 = > 10 µM (inactive)

Data point: C[C@H]1CN([C@@H](C)CO)C(=O)CCCn2nncc2CO[C@H]1CN(C)S(=O)(=O)c1cn(C)cn1 ; AC50 = > 10 µM (inactive)

Data point: C[C@@H]1CN([C@H](C)CO)C(=O)CCCn2cc(nn2)CO[C@H]1CN(C)C(=O)Nc1cccc(C(F)(F)F)c1 ; AC50 = > 10 µM (inactive)

Data point: O=C(CC(F)(F)F)N1C[C@@H]2[C@H](c3ccccc31)[C@H](CO)N2Cc1cccnc1 ; AC50 = > 10 µM (inactive)

Data point: C/C=C/c1ccc([C@@H]2[C@@H](CO)N[C@@H]2CN(CC)C(=O)CN2CCOCC2)cc1 ; AC50 = > 10 µM (inactive)

Data point: O=C(c1ccc2c(c1)OCO2)N1C[C@H]2[C@@H](c3ccccc31)[C@H](CO)N2Cc1cccnc1 ; AC50 = > 10 µM (inactive)

* * *

For each record, write down the corresponding AC50.
tested on: L. donovani amastigotes in THP-1 macrophages, DAPI imaging, 72 h; assay: L. donovani intracellular amastigote growth inhibitors, imaging, THP-1 host macrophages, single concentration (AID 977614);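 further: signal is the parasite per host cell ratio from DAPI stained kinetoplasts and nuclei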
Activity calls are given as the source filed them.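 Rule for the calls: active = parasite count per well reduced by over 3 SD from the mean, with host cell number above 80% of untreated; inactive = the rest.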

Data point: N#Cc1cccc(-c2ccc([C@H]3[C@@H](CO)N[C@@H]3CNC(=O)C3CCC3)cc2)c1 ; AC50 = > 10 µM (inactive)

Data point: O=C(NC[C@H]1[C@H](c2ccccc2)[C@H](CO)N1Cc1ccccn1)C1CCCC1 ; AC50 = > 10 µM (inactive)

Data point: CN1C[C@@H]2[C@H](c3ccccc31)[C@@H](CO)N2C(=O)C1CCOCC1 ; AC50 = > 10 µM (inactive)

Data point: C[C@H](CO)N1C[C@H](C)[C@@H](CN(C)S(=O)(=O)c2cn(C)cn2)OCc2cnnn2CCCC1=O ; AC50 = > 10 µM (inactive)

Data point: C[C@@H]1CN([C@@H](C)CO)C(=O)CCCn2nncc2CO[C@@H]1CN(C)C(=O)Nc1cccc(Oc2ccccn2)c1 ; AC50 = > 10 µM (inactive)

Data point: CN(C[C@@H]1[C@H](c2ccccc2)[C@H](CO)N1Cc1ccccn1)S(C)(=O)=O ; AC50 = > 10 µM (inactive)

Data point: CCS(=O)(=O)N1[C@H](CO)[C@H](c2ccccc2)[C@H]1CN(C(C)=O)C1CCCC1 ; AC50 = > 10 µM (inactive)

Data point: O=C(CN1CCOCC1)NC[C@@H]1N[C@@H](CO)[C@H]1c1ccc(-c2ccccc2)cc1 ; AC50 = > 10 µM (inactive)

Data point: CCN(C[C@@H]1[C@H](c2ccccc2)[C@@H](CO)N1CC1CC1)C(=O)c1ccccn1 ; AC50 = > 10 µM (inactive)

Data point: O=C(NC[C@H]1N[C@H](CO)[C@@H]1c1ccc(-c2ccccc2)cc1)c1cccc(F)c1 ; AC50 = > 10 µM (inactive)

Data point: CCCN1[C@H](CO)[C@H](c2ccc(C#CC(C)C)cc2)[C@@H]1CN(C)S(C)(=O)=O ; AC50 = > 10 µM (inactive)

Data point: O=C(c1ccccc1)N1C[C@H]2[C@@H](c3ccccc31)[C@@H](CO)N2Cc1ccccn1 ; AC50 = > 10 µM (inactive)

Data point: C[C@@H]1CN([C@@H](C)CO)C(=O)CCCn2nncc2CO[C@H]1CN(C)Cc1cccc(C(F)(F)F)c1 ; AC50 = > 10 µM (inactive)

Data point: C[C@H]1CN([C@@H](C)CO)C(=O)CCCn2nncc2CO[C@@H]1CN(C)C(=O)Nc1ccccc1C(F)(F)F ; AC50 = > 10 µM (inactive)

Data point: COCC(=O)N1[C@H](CO)[C@H]2c3ccccc3N(C)C[C@H]21 ; AC50 = > 10 µM (inactive)

Data point: O=C(Nc1ccccc1Cl)N1C[C@H]2[C@@H](c3ccccc31)[C@@H](CO)N2C(=O)c1cccnc1 ; AC50 = > 10 µM (inactive)

Data point: C[C@@H]1CN([C@H](C)CO)C(=O)CCCn2nncc2CO[C@H]1CN(C)C(=O)c1ccc2ccn(C)c2c1 ; AC50 = > 10 µM (inactive)

Data point: C[C@@H]1CN([C@H](C)CO)C(=O)CCCn2cc(nn2)CO[C@@H]1CN(C)Cc1ccccc1 ; AC50 = > 10 µM (inactive)

Data point: CCC(=O)N1[C@H](CO)[C@H](c2ccc(C#CC(C)(C)O)cc2)[C@@H]1CN(C)C(C)=O ; AC50 = > 10 µM (inactive)

Data point: CN1C[C@H]2[C@@H](c3ccccc31)[C@H](CO)N2C(=O)C1CCOCC1 ; AC50 = > 10 µM (inactive)

Data point: CCC(=O)N1[C@@H](CO)[C@@H]2c3ccccc3N(C(=O)Nc3ccc(Cl)cc3)C[C@@H]21 ; AC50 = > 10 µM (inactive)

Data point: C[C@@H]1CN([C@@H](C)CO)C(=O)CCCn2nncc2CO[C@@H]1CN(C)C(=O)c1ccc2ccn(C)c2c1 ; AC50 = > 10 µM (inactive)

Data point: C[C@H](CO)N1C[C@H](C)[C@@H](CN(C)C(=O)c2cc(-c3ccccc3)on2)OCc2cnnn2CCCC1=O ; AC50 = > 10 µM (inactive)

Data point: CN1C[C@@H]2[C@H](c3ccccc31)[C@@H](CO)N2S(=O)(=O)c1ccccc1 ; AC50 = > 10 µM (inactive)

Data point: COc1ccc(C(=O)N2C[C@@H]3[C@H](c4ccccc42)[C@@H](CO)N3C(=O)Cc2ccccn2)cc1 ; AC50 = > 10 µM (inactive)

Data point: COc1ccccc1CN1[C@H](CO)[C@@H]2c3ccccc3N(C(=O)c3cccnc3)C[C@@H]21 ; AC50 = > 10 µM (inactive)

Data point: O=C(C1CCOCC1)N1C[C@H]2[C@@H](c3ccccc31)[C@@H](CO)N2C(=O)Cc1ccccn1 ; AC50 = > 10 µM (inactive)

Data point: C[C@H]1CN([C@@H](C)CO)C(=O)CCCn2nncc2CO[C@@H]1CN(C)S(=O)(=O)c1cn(C)cn1 ; AC50 = > 10 µM (inactive)

Data point: O=C(C1CCOCC1)N1C[C@@H]2[C@H](c3ccccc31)[C@@H](CO)N2C(=O)Nc1ccccc1F ; AC50 = > 10 µM (inactive)

Data point: C[C@@H]1CN([C@@H](C)CO)C(=O)CCCn2cc(nn2)CO[C@H]1CN(C)C(=O)CCC(F)(F)F ; AC50 = > 10 µM (inactive)

Data point: CN(C[C@H]1[C@@H](c2ccccc2)[C@@H](CO)N1C(=O)C1CCC1)C(=O)c1ccncc1 ; AC50 = > 10 µM (inactive)

Data point: C[C@@H]1CN([C@H](C)CO)C(=O)CCCn2nncc2CO[C@H]1CN(C)CC1CCCCC1 ; AC50 = > 10 µM (inactive)

Data point: COCC(=O)NC[C@@H]1[C@@H](c2ccccc2)[C@H](CO)N1C(=O)c1ccccc1 ; AC50 = > 10 µM (inactive)

Data point: CCC(=O)N1[C@@H](CO)[C@@H](c2ccccc2)[C@@H]1CN(CC)C(=O)c1cccc(F)c1 ; AC50 = > 10 µM (inactive)

Data point: CN1C[C@@H]2[C@H](c3ccccc31)[C@H](CO)N2C(=O)c1cccnc1 ; AC50 = > 10 µM (inactive)
